test: Biodistribution in HEK293-hsst2A+ tumor-bearing mice; format: in vivo; details: mouse, iv, 10 pmol, total radioactivity; HEK293-hsst2A+ tumor SCID mice, 4 h pi; mean ± SD; read-out: Tumor uptake
Readout Name: tissue uptake at 4 h

Compound	Readout Name	Measurement
C[C@H](NC(=O)CN1CCN(CC(=O)O)CCN(CC(=O)O)CCN(CC(=O)O)CC1)C(=O)NCC(=O)N[C@H]1CSSC[C@@H](C(=O)O)NC(=O)[C@H](CO)NC(=O)[C@H]([C@@H](C)O)NC(=O)[C@H](Cc2ccccc2)NC(=O)[C@H]([C@@H](C)O)NC(=O)[C@H](CCCCN)NC(=O)[C@@H](Cc2c[nH]c3ccccc23)NC(=O)[C@H](Cc2ccccc2)NC(=O)[C@H](Cc2ccccc2)NC(=O)[C@H](CC(N)=O)NC(=O)[C@H](CCCCN)NC1=O [[^111In]AT2S, metal not drawn]	tissue uptake at 4 h	1.49 %ID/g

###

test: Biodistribution in HEK293-hsst5+ tumor-bearing mice; format: in vivo; conditions: mouse, spleen, iv, 10 pmol total peptide, total radioactivity; HEK293-hsst5+ tumor SCID mice, 4 h pi; mean ± SD; read-out: Spleen uptake

Molecule	tissue uptake at 4 h [%ID/g]
C[C@H](NC(=O)CN1CCN(CC(=O)O)CCN(CC(=O)O)CCN(CC(=O)O)CC1)C(=O)NCC(=O)N[C@H]1CSSC[C@@H](C(=O)O)NC(=O)[C@H](CO)NC(=O)[C@H]([C@@H](C)O)NC(=O)[C@H](Cc2ccccc2)NC(=O)[C@H]([C@@H](C)O)NC(=O)[C@H](CCCCN)NC(=O)[C@@H](Cc2c[nH]c3ccccc23)NC(=O)[C@H](Cc2ccccc2)NC(=O)[C@H](Cc2ccccc2)NC(=O)[C@H](CC(N)=O)NC(=O)[C@H](CCCCN)NC1=O [[^111In]AT2S, metal not drawn]	0.78

###

assay: Biodistribution in HEK293-hsst5+ tumor-bearing mice; format: in vivo; details: mouse, blood, iv, 10 pmol, total radioactivity; HEK293-hsst5+ tumor SCID mice, 4 h pi; mean ± SD; read-out: Blood uptake
Readout Name: tissue uptake at 4 h

Compound	Measurement
C[C@H](NC(=O)CN1CCN(CC(=O)O)CCN(CC(=O)O)CCN(CC(=O)O)CC1)C(=O)NCC(=O)N[C@H]1CSSC[C@@H](C(=O)O)NC(=O)[C@H](CO)NC(=O)[C@H]([C@@H](C)O)NC(=O)[C@H](Cc2ccccc2)NC(=O)[C@H]([C@@H](C)O)NC(=O)[C@H](CCCCN)NC(=O)[C@@H](Cc2c[nH]c3ccccc23)NC(=O)[C@H](Cc2ccccc2)NC(=O)[C@H](Cc2ccccc2)NC(=O)[C@H](CC(N)=O)NC(=O)[C@H](CCCCN)NC1=O [[^111In]AT2S, metal not drawn]	0.1 %ID/g

###

assay: Biodistribution in AR4-2J tumor-bearing mice; assay type: in vivo; conditions: female, mouse, spleen, iv, total radioactivity; AR4-2J tumor SCID mice, 4 h pi + co-injection of 50 nmol Tate; mean ± SD; read-out: Spleen uptake, blocked
Readout Name: tissue uptake at 4 h

Compound	Measurement
C[C@H](NC(=O)CN1CCN(CC(=O)O)CCN(CC(=O)O)CCN(CC(=O)O)CC1)C(=O)NCC(=O)N[C@H]1CSSC[C@@H](C(=O)O)NC(=O)[C@H](CO)NC(=O)[C@H]([C@@H](C)O)NC(=O)[C@H](Cc2ccccc2)NC(=O)[C@H]([C@@H](C)O)NC(=O)[C@H](CCCCN)NC(=O)[C@@H](Cc2c[nH]c3ccccc23)NC(=O)[C@H](Cc2ccccc2)NC(=O)[C@H](Cc2ccccc2)NC(=O)[C@H](CC(N)=O)NC(=O)[C@H](CCCCN)NC1=O [[^111In]AT2S, metal not drawn]	0.61 %ID/g

###

experiment: Biodistribution in AR4-2J tumor-bearing mice; assay type: in vivo; details: female, mouse, kidneys, iv, 10 pmol, total radioactivity; AR4-2J tumor SCID mice, 4 h pi; mean ± SD; read-out: Kidneys uptake

Compound	tissue uptake at 4 h [%ID/g]
C[C@H](NC(=O)CN1CCN(CC(=O)O)CCN(CC(=O)O)CCN(CC(=O)O)CC1)C(=O)NCC(=O)N[C@H]1CSSC[C@@H](C(=O)O)NC(=O)[C@H](CO)NC(=O)[C@H]([C@@H](C)O)NC(=O)[C@H](Cc2ccccc2)NC(=O)[C@H]([C@@H](C)O)NC(=O)[C@H](CCCCN)NC(=O)[C@@H](Cc2c[nH]c3ccccc23)NC(=O)[C@H](Cc2ccccc2)NC(=O)[C@H](Cc2ccccc2)NC(=O)[C@H](CC(N)=O)NC(=O)[C@H](CCCCN)NC1=O [[^111In]AT2S, metal not drawn]	21.1

###

assay: Biodistribution in HEK293-hsst3+ tumor-bearing mice; type: in vivo; conditions: mouse, liver, iv, 10 pmol, total radioactivity; HEK293-hsst3+ tumor SCID mice, 4 h pi; mean ± SD; read-out: Liver uptake

Molecule	tissue uptake at 4 h, %ID/g
C[C@H](NC(=O)CN1CCN(CC(=O)O)CCN(CC(=O)O)CCN(CC(=O)O)CC1)C(=O)NCC(=O)N[C@H]1CSSC[C@@H](C(=O)O)NC(=O)[C@H](CO)NC(=O)[C@H]([C@@H](C)O)NC(=O)[C@H](Cc2ccccc2)NC(=O)[C@H]([C@@H](C)O)NC(=O)[C@H](CCCCN)NC(=O)[C@@H](Cc2c[nH]c3ccccc23)NC(=O)[C@H](Cc2ccccc2)NC(=O)[C@H](Cc2ccccc2)NC(=O)[C@H](CC(N)=O)NC(=O)[C@H](CCCCN)NC1=O [[^111In]AT2S, metal not drawn]	1.02

###

assay: Biodistribution in AR4-2J tumor-bearing mice; format: in vivo; conditions: female, mouse, muscle, iv, total radioactivity; AR4-2J tumor SCID mice, 4 h pi + co-injection of 50 nmol Tate; mean ± SD; read-out: Muscle uptake, blocked

Molecule	tissue uptake at 4 h [%ID/g]
C[C@H](NC(=O)CN1CCN(CC(=O)O)CCN(CC(=O)O)CCN(CC(=O)O)CC1)C(=O)NCC(=O)N[C@H]1CSSC[C@@H](C(=O)O)NC(=O)[C@H](CO)NC(=O)[C@H]([C@@H](C)O)NC(=O)[C@H](Cc2ccccc2)NC(=O)[C@H]([C@@H](C)O)NC(=O)[C@H](CCCCN)NC(=O)[C@@H](Cc2c[nH]c3ccccc23)NC(=O)[C@H](Cc2ccccc2)NC(=O)[C@H](Cc2ccccc2)NC(=O)[C@H](CC(N)=O)NC(=O)[C@H](CCCCN)NC1=O [[^111In]AT2S, metal not drawn]	0.07

###

Experiment: Biodistribution in AR4-2J tumor-bearing mice
Type: in vivo
Conditions: female, mouse, pancreas, iv, 10 pmol, total radioactivity; AR4-2J tumor SCID mice, 1 h pi; mean ± SD; read-out: Pancreas uptake
Description: In the flanks of each of female SCID mice, inocula (150 μL) containing a suspension of 0.8 × 10^7 AR4-2J cells in PBS buffer were subcutaneously injected. […] Mice were sacrificed at 4 h pi, and biodistribution was studied as described above. The in vivo data presented as mean %ID/g ± SD (n ≥ 4) were statistically analyzed with Student’s t test (Prism^TM 2.01, GraphPad Software, San Diego, CA, USA). Analyses were 2-tailed, and a P value < 0.05 was considered statistically significant.
Readout Name: tissue uptake at 1 h (%ID/g)

Compound	Measurement
C[C@H](NC(=O)CN1CCN(CC(=O)O)CCN(CC(=O)O)CCN(CC(=O)O)CC1)C(=O)NCC(=O)N[C@H]1CSSC[C@@H](C(=O)O)NC(=O)[C@H](CO)NC(=O)[C@H]([C@@H](C)O)NC(=O)[C@H](Cc2ccccc2)NC(=O)[C@H]([C@@H](C)O)NC(=O)[C@H](CCCCN)NC(=O)[C@@H](Cc2c[nH]c3ccccc23)NC(=O)[C@H](Cc2ccccc2)NC(=O)[C@H](Cc2ccccc2)NC(=O)[C@H](CC(N)=O)NC(=O)[C@H](CCCCN)NC1=O [[^111In]AT2S, metal not drawn]	7.35

###

assay: Biodistribution in AR4-2J tumor-bearing mice; assay type: in vivo; conditions: female, mouse, iv, 10 pmol, total radioactivity; AR4-2J tumor SCID mice, 4 h pi; mean ± SD; read-out: Tumor uptake

Compound	tissue uptake at 4 h [%ID/g]
C[C@H](NC(=O)CN1CCN(CC(=O)O)CCN(CC(=O)O)CCN(CC(=O)O)CC1)C(=O)NCC(=O)N[C@H]1CSSC[C@@H](C(=O)O)NC(=O)[C@H](CO)NC(=O)[C@H]([C@@H](C)O)NC(=O)[C@H](Cc2ccccc2)NC(=O)[C@H]([C@@H](C)O)NC(=O)[C@H](CCCCN)NC(=O)[C@@H](Cc2c[nH]c3ccccc23)NC(=O)[C@H](Cc2ccccc2)NC(=O)[C@H](Cc2ccccc2)NC(=O)[C@H](CC(N)=O)NC(=O)[C@H](CCCCN)NC1=O [[^111In]AT2S, metal not drawn]	1.82
